# maps each entry to its melting point
Could you give me the number in °C? Just the number is fine.

chemicalstring=CSc1nc2ccnn2c(NCc2ccco2)c1C#N readoutlabel="melting point" value=110
chemicalstring=CSc1nc2ccnn2c(NCCOc2ccccc2)c1C#N readoutlabel="melting point" value=122
chemicalstring=CSc1nc2ccnn2c(NCc2cccc(Cl)c2)c1C#N readoutlabel="melting point" value=155
chemicalstring=Cc1nc2ccnn2c(NCCc2ccccc2)c1C#N readoutlabel="melting point" value=143
chemicalstring=CSc1nc2ccnn2c(NCc2ccc([N+](=O)[O-])cc2)c1C#N readoutlabel="melting point" value=215
chemicalstring=CSc1nc2ccnn2c(NCc2cccnc2)c1C#N readoutlabel="melting point" value=192

Entry `CSc1nc2ccnn2c(NCc2ccc(Cl)cc2)c1C#N` — recorded melting point = 167

Entry `CSc1nc2ccnn2c(NCc2ccc(C)cc2)c1C#N` — recorded melting point = 159

Entry `CSc1nc2ccnn2c(N(Cc2ccccn2)Cc2ccccn2)c1C#N` — recorded melting point = 139
